System: TAS2R44 (Homo sapiens, UniProt P59538, L162M)
Construct: The full length gene of human TAS2R44 was amplified by polymerase chain reaction (PCR) using gene-specific primers that span the entire coding region; RSS tag (first 45 amino acids of rat somatostatin receptor subtype 3, plus EcoRI site) (N); expressed in transfected cells; host or cells: HEK293T/Galpha16-gustducin 44 cells, stably transfected with pcDNA3.1Zeo-TAS2R44
Sequence (P59538 with tags, fused parts or gaps L162M): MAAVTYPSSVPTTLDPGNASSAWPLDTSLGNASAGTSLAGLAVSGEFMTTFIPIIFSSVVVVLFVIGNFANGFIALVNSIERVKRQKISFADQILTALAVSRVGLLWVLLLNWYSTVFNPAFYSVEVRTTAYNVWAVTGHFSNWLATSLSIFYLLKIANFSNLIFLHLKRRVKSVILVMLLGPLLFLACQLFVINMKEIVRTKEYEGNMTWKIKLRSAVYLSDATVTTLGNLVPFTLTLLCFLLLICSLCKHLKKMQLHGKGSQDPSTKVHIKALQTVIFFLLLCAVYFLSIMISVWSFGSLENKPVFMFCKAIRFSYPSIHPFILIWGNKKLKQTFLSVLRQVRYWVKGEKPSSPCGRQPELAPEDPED
Method summary: Fluo-4 calcium assay, antagonists of the response of TAS2R44 to steviol glycosides
Assay type: cell-based
Condition context: inhibition of the response to 0.7 mM rebaudioside A; read-out: IC50 concentration for rebaudioside
Endpoint label: pIC50
Scale note: pIC50 = -log10(concentration in M).

Q. Read off the recorded pIC50 for CC1CCC(CCCC(=O)O)C1(C)C (stereo not shown)
A. 6.45
